organism: Homo sapiens
MEASURED PARAMETER: Km (µM)

> print(dat)
                                    compound  measured.parameter  relation.sign  recorded.measurement
 1  Cc1cn([C@H]2C[C@H](O)[C@@H](CO)O2)c(=O)[nH]c1=O                  Km              =                    23
 2  CCOC(=O)/C(C#N)=C/c1cn([C@H]2C[C@H](O)[C@@H](CO)O2)c(=O)[nH]c1=O                  Km              =                   118
 3  CC1(C)CC(=O)C2=C(C1)OC(N)=C(C#N)C2c1cn([C@H]2C[C@H](O)[C@@H](CO)O2)c(=O)[nH]c1=O (stereo not given in full)                  Km              >                   200
 4  N#CC(C#N)=Cc1cn([C@H]2C[C@H](O)[C@@H](CO)O2)c(=O)[nH]c1=O                  Km              =                   113
 5  O=c1[nH]c(=O)n([C@H]2C[C@H](O)[C@@H](CO)O2)cc1F                  Km              =                    96
 6  O=c1[nH]c(=O)n([C@@H]2O[C@H](CO)[C@@H](O)[C@@H]2F)cc1I                  Km              =                    66
 7  Nc1nc(=O)n([C@@H]2O[C@H](CO)[C@@H](O)[C@@H]2F)cc1I                  Km              >                   135
 8  O=c1[nH]c(=O)n([C@H]2C[C@H](O)[C@@H](CO)O2)cc1Br                  Km              =                    46
 9            O=c1[nH]cc(C(F)(F)F)c(=O)[nH]1                  Km              =                    47
10  O=c1[nH]c(=O)n([C@H]2C[C@H](O)[C@@H](CO)O2)cc1I [IDOXURIDINE]                  Km              =                    38

* * *

test system: Human alphaherpesvirus 3; test: microbe, parasite or virus in culture; type: functional, organism-based; conditions: Human alphaherpesvirus 3, Ellen, HFF, 240 h
Values of EC50 strictly less than 9 µM map to rule met, and values of at least 9 µM map to rule not met.

> print(dat)
                                   compound               target.desc           cat
1  N#CC(C#N)=Cc1cn([C@H]2C[C@H](O)[C@@H](CO)O2)c(=O)[nH]c1=O  Human alphaherpesvirus 3  rule not met
2  Nc1nc2c(ncn2COCCO)c(=O)[nH]1 [ACYCLOVIR]  Human alphaherpesvirus 3      rule met
3  N#CC1=C(N)OC2=C(C(=O)CCC2)C1c1cn([C@H]2C[C@H](O)[C@@H](CO)O2)c(=O)[nH]c1=O (stereo not given in full)  Human alphaherpesvirus 3  rule not met
4  CCOC(=O)/C(C#N)=C/c1cn([C@H]2C[C@H](O)[C@@H](CO)O2)c(=O)[nH]c1=O  Human alphaherpesvirus 3  rule not met

src = ChEMBL document CHEMBL1145474
